Test system: K4 kissing-loop RNA reporter
Test: apparent KD of K4 kissing-loop reporter; higher = weaker reporter binding
Conditions: Eterna round: R107; input ligand: none
MEASURED_PARAMETER: apparent KD of K4 kissing-loop reporter (nM)
Give the number; nM is assumed, so skip it.

Recorded results for 8 sequences are shown here.
{"RESIDUE_STRING": "GGUGUUGUUUGUGCUGUUUUCUUUGUUUCUCGAGGACCGGUACGGCCGCCACUCGAGUGAUGUUUGGGUAGUGAUGUUUGUUAGU [Bdazzled #1 Exc. TA]", "SYSTEM_TESTED": "K4 kissing-loop RNA reporter", "apparent KD of K4 kissing-loop reporter (nM)": 198}
{"RESIDUE_STRING": "CUAAUCGCUCAUGAUACCAGCUAGUGAUGUUAGCCCGUCAAGCUGAGGGUUCAUCCACCCAGCCCUUGGCAGCAUUCUCGGUCAG [theeternabot_exclusion_KL_Theo_B_8]", "SYSTEM_TESTED": "K4 kissing-loop RNA reporter", "apparent KD of K4 kissing-loop reporter (nM)": 387}
{"RESIDUE_STRING": "AAACAUCACUGGGAGUGAUGUUCUCAGUGACGAGGACCGGUACGGCCGCCACUCGCGAGAGAUAUAAAUGAGUAAUGACAUCAUU [Excl Tryptophan A V2]", "SYSTEM_TESTED": "K4 kissing-loop RNA reporter", "apparent KD of K4 kissing-loop reporter (nM)": 280}
{"RESIDUE_STRING": "GGGAGUGAUGUUCCCACGUUGUCGGUCCUCCGAGGACCGGUACGGCCGCCACUCGCGACCCAGUGAUGUUGGGACUCACCGUACC [Exclusion Tryptophan A Gf 12]", "SYSTEM_TESTED": "K4 kissing-loop RNA reporter", "apparent KD of K4 kissing-loop reporter (nM)": 558}
{"RESIDUE_STRING": "CAUAGGAAACUAUGUUUCUCUCUUACUGAAGGAGCGCGUGAAAACGCAGGUAGGUCGCAGAAUUUAAAAGAGAGUGAUGUUCUCA [Ex Arginine A K4 11]", "SYSTEM_TESTED": "K4 kissing-loop RNA reporter", "apparent KD of K4 kissing-loop reporter (nM)": 598}
{"RESIDUE_STRING": "GAUUCAGUGAUGUUGGAAGGCGAGCGGGAUACCAGCCGAGACUCAGGCCCUUGGCAGCCCACAUAUCCCAGGUAGAUAGUCGAUC [Same State - Theophylline A (Freestyle 9)]", "SYSTEM_TESTED": "K4 kissing-loop RNA reporter", "apparent KD of K4 kissing-loop reporter (nM)": 170}
{"RESIDUE_STRING": "UAAUAUAACCGAAGGAGCGCGUGGGCGCAGUGAUGUUGCGCCCGACAUCACUUCAACUAAACGCAGGUAGGUCGCGGUAAUAAUA [Arginine B (Excl) V1]", "SYSTEM_TESTED": "K4 kissing-loop RNA reporter", "apparent KD of K4 kissing-loop reporter (nM)": 104}
{"RESIDUE_STRING": "GUGUGGAUCCGAAGGAGCGUCCGCAAUCCAGUGAUGUUGGGUGUUGGUUUUAGUAGACGAGGACAGGUAGGUCGCGGAUUUACAA [Same State Arginie B GF 23]", "SYSTEM_TESTED": "K4 kissing-loop RNA reporter", "apparent KD of K4 kissing-loop reporter (nM)": 153}

Would you mind telling me what apparent KD of K4 kissing-loop reporter value was observed for GCCGUAGAUUGAAGGAGCGUUCUUCAGCAAACUUGCAGUGAUGUUGCAUUAAACAUGUAAGAACAGGUAGGUCGCAAUCUACGGC ?
155

Would you mind telling me what apparent KD of K4 kissing-loop reporter value was observed for UAUUUAUUAACUGAUACCAGACUUAAUGAAUUGUAAAUUACUAGUGAUGUUAGUGAAUCUGUCCCUUGGCAGCAGUAUUUAUUAA [JR_Nu_ExcTheophyB_Sub028] ?
128

Would you mind telling me what apparent KD of K4 kissing-loop reporter value was observed for CCUAUCUCAUACGAUACCAGUCUACGAUAUUUUAUCGUUGCCAACACCGAGUGAUGUUCGGACCCUUGGCAGCGUAUGGGAUAGG [#03 K4 Theophylline B Exclusion] ?
143

* * *

Tested on: MS2 coat protein
Test: apparent KD of MS2 coat protein; designed switch direction (-1 OFF switch, 1 ON switch): -1; higher = weaker reporter binding
Settings: Eterna round: R95; input ligand: microRNA oligo, concentration not stated
MEASURED_PARAMETER: apparent KD of MS2 coat protein
The reply must contain the numeric value and, after it, the unit.

Recorded results for 2 sequences are shown here.
{"RESIDUE_STRING": "GAUUAUGCGAGCUUUAGGGACAUGAGGAUCACCCAUGUUCGUCUUAUUGAUCUAGGUACGCUAACAUACCUAAAUCU [Mod of one of jandersonlee's solutions 3] (puzzle: Sensor v3, turn-off variant 1)", "SYSTEM_TESTED": "MS2 coat protein", "MEASURED_PARAMETER": "apparent KD of MS2 coat protein", "DATA_VALUE": "0.0363 µM"}
{"RESIDUE_STRING": "UGAGGACAUGAGGAUCACCCAUGUAAGGAUAUGCGGAGAGUUUGGAGAGGUUGAGGAGGCAGAAGGUACGGGAU [JR_Exclu1_Sub046] (puzzle: Exclusion 1)", "SYSTEM_TESTED": "MS2 coat protein", "MEASURED_PARAMETER": "apparent KD of MS2 coat protein", "DATA_VALUE": "0.102 µM"}

Continue with the next sequence.
Would you mind telling me what apparent KD of MS2 coat protein value was observed for GGUCCACAUGAGGAUCACCCAUGUUAGGAUAUCUCCCGCCUCCUCACUGGAGACGGACAGAGAAGGAACAUCAA [Vetibele] (puzzle: Exclusion 1) ?
0.0237 µM

* * *

System: K4 kissing-loop RNA reporter;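 also: bound reporter read as fluorescence of individual clusters on recovered sequencing chips by microscopy, with normalized cluster intensities fitted with a binding model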
Assay: apparent KD of K4 kissing-loop reporter; higher = weaker reporter binding
Settings: Eterna round: R107; input ligand: theophylline 20 uM
MEASURED_PARAMETER: apparent KD of K4 kissing-loop reporter (nM)
Give the number; nM is assumed, so skip it.

Would you mind telling me what apparent KD of K4 kissing-loop reporter value was observed for AUUCGAUCAGUGAUGUUGAUCAAAGUCGAAGGAGCGGACGAAAGUCCAGGUAGGUCGCGACUACAAGGUGUUAAGACACCUCGAA [Spvincent t9 mod #OpenEnded] ?
208

Would you mind telling me what apparent KD of K4 kissing-loop reporter value was observed for CCUCACGUAGGACUAGUGAUGUUAGACUACCGAGGACCGGUACGGCCGCCACUCGUCGUACAAGAUAACCUUCCGCCAGUAUACG ?
88.4

Would you mind telling me what apparent KD of K4 kissing-loop reporter value was observed for GCUCGGGAGUGAUGUUCCAAGUGGUGUUAACGAGGACCGGUACGGCCGCCACUCGAUACGGCCGGGCCGUAGGAUAAACUGGAGC [Same State - Tryptophan A (Freestyle 13)] ?
174

Would you mind telling me what apparent KD of K4 kissing-loop reporter value was observed for GAAGUACAGGCGGCCGCCACUAGUGAUGUUAGUGAUAAAAGAUAAAGUAUAUAUCGGCAUGUAGAUAGGACCGGGCCUGAUGGAG [uiiumullin] ?
203

Would you mind telling me what apparent KD of K4 kissing-loop reporter value was observed for UGACUGGAUGGAAGGAGCGCUAAACUCCUAGUGAUGUUAGGGAUAUGAGGCAAAGCCUCGAAGCAGGUAGGUCGCCAUCUAGUCU [FiskerMod 20 - Jieux - Same State - Arginine B] ?
160

Would you mind telling me what apparent KD of K4 kissing-loop reporter value was observed for GUUACGCAUGGAAGGAGCGCUCUCCGGUUUAUUAACACAGUGAUGUUGUGAUUUUACCGAAAGCAGGUAGGUCGCCAUGUGUAAC [Ex Arginine B K4 12] ?
381

* * *

Test system: MS2 coat protein
Experiment: apparent KD of MS2 coat protein; designed switch direction (-1 OFF switch, 1 ON switch): -1; higher = weaker reporter binding
Details: input ligand: none
MEASURED_PARAMETER: apparent KD of MS2 coat protein (nM)
Give the number; nM is assumed, so skip it.

Recorded results for 4 sequences are shown here.
{"RESIDUE_STRING": "AGUUGGCGAGGAUAUACAUGAGGAUCACCCAUGUAUGAGAUACGAGUAAGGUAAAUAUGUAGAAGGCGCUGACA [JR_Ex3_Sub077] (Eterna round: R97, puzzle: Exclusion 3)", "DATA_VALUE": 16.8}
{"RESIDUE_STRING": "CACGAACAUGAGGAUCACCCAUGUCAGGAUAUGAGGCUUUGCGUGCCGCAUUUUGGUCUUAGAAGGGACAGCCG [Eternabot (L2) Solution 49] (Eterna round: R97, puzzle: Exclusion 1)", "DATA_VALUE": 23}
{"RESIDUE_STRING": "UUUAUACAUGAGGAUCACCCAUGUGAGGAUAUGCUUUAUUAUUAUUAUUAUUAUUAUUGCAGAAGGUACAUUAU [LRO-Excl01-14] (Eterna round: R97, puzzle: Exclusion 1)", "DATA_VALUE": 37.7}
{"RESIDUE_STRING": "AAACCGCAAGGAUAUACUUGCGGUGGUGUUCGAAACUUUCUACUUGAGGAUCACCCAAGUAGAAGGUGCGGUAA [jl-ex2.4.71 ViennaUCT mod] (Eterna round: R97, puzzle: Exclusion 2)", "DATA_VALUE": 12.9}

Continue with the next sequence.
Form field - read-out: apparent KD of MS2 coat protein; system: MS2 coat protein; submitted item: UGCAGACGAGGAUAUGAUAAAGAUCACAUGAGGAUCACCCAUGUACGCAGGAUACUGCGAUCAGAAGGCGUCUGCA [E5/1-A3] (Eterna round: R97, puzzle: Exclusion 5)
13
